Data origin, for the record: patent US8575135B2

Tested on: 1a Pi-Rluc replicon with Q30R in genotype 1a NS5A
TEST METHOD NOTES: microbe, parasite or virus in culture
Format: cell-based, HCV
CONDITION SET: Hepatitis C virus, read-out: 1a Q30R (nM)
RECORDED METRIC: EC50 (nM)
Expressed in nM, but write only the number.

{"SMILES RECORD": "COC(=O)N[C@H](C(=O)N1[C@@H](C)CC[C@H]1c1ncc(-c2ccc3c(c2)COc2cc4c(ccc5nc([C@@H]6CC[C@H](C)N6C(=O)[C@@H](NC(=O)OC)[C@@H](C)OC)[nH]c54)cc2-3)[nH]1)[C@@H](C)OC", "RECORDED METRIC": "EC50", "RECORDED NUMBER": 0.059}
{"SMILES RECORD": "COC[C@H]1C[C@@H](c2ncc(-c3ccc4c(c3)COc3cc5c(ccc6nc([C@@H]7C[C@H](C)CN7C(=O)[C@@H](NC(=O)OC)C(C)C)[nH]c65)cc3-4)[nH]2)N(C(=O)[C@H](NC(=O)OC)c2ccccc2)C1", "RECORDED METRIC": "EC50", "RECORDED NUMBER": 0.028}
{"SMILES RECORD": "COC[C@H]1C[C@@H](c2nc3ccc4cc5c(cc4c3[nH]2)OCc2cc(-c3cnc([C@@H]4CCCN4C(=O)[C@@H](NC(=O)OC)C(C)C)[nH]3)ccc2-5)N(C(=O)[C@H](N)c2ccccc2)C1", "RECORDED METRIC": "EC50", "RECORDED NUMBER": 0.139}

Now turn to the next molecule.
The value of EC50 measured for the molecule "CCO[C@H]1C[C@@H](c2nc3ccc4cc5c(cc4c3[nH]2)OCc2cc(-c3cnc([C@@H]4CCCN4C(=O)[C@@H](NC(=O)OC)C(C)C)[nH]3)ccc2-5)N(C(=O)[C@@H](NC(=O)OC)C(C)C)C1" turned out to be 0.102

---

System: NS5A chimeric genotype 1b Con1 replicon with genotype 4a ED43 strain NS5A gene
TEST METHOD NOTES: microbe, parasite or virus in culture
Format: cell-based, HCV
CONDITION SET: Hepatitis C virus, read-out: 4a
pEC50: −log10 of the molar value.
RECORDED METRIC: pEC50

{"COMPOUND": "COC[C@H]1C[C@@H](c2nc3c([nH]2)-c2cc4c(cc2CC3)-c2ccc(-c3cnc([C@@H]5CCCN5C(=O)[C@@H](NC(=O)OC)C(C)C)[nH]3)cc2CO4)N(C(=O)[C@H](NC(=O)OC)c2ccccc2)C1 [Example MR]", "pEC50": "> 9.00"}

Now turn to the next compound.
# COC(=O)N[C@H](C(=O)N1[C@@H](C)CC[C@H]1c1ncc(-c2ccc3c(c2)COc2cc4c(ccc5nc([C@@H]6CCCN6C(=O)[C@H](N)c6ccccc6)[nH]c54)cc2-3)[nH]1)C(C)C [Example NR] with NS5A chimeric genotype 1b Con1 replicon with genotype 4a ED43 strain NS5A gene: pEC50 is > 9.00

---

Test system: 1a Pi-Rluc replicon with Q30R in genotype 1a NS5A
TEST METHOD NOTES: microbe, parasite or virus in culture
Format: cell-based, HCV
CONDITION SET: Hepatitis C virus, read-out: 1a Q30R (nM)
Strictly below 0.04 nM in EC50: Met. Otherwise: Not met.

{"COMPOUND": "COC(=O)N[C@H](C(=O)N1[C@H](c2nc3ccc4cc5c(cc4c3[nH]2)OCc2cc(-c3cnc(C4CCCN4C(=O)[C@H](NC(=O)OC)c4ccccc4)[nH]3)ccc2-5)C[C@@H]2CCC[C@@H]21)C(C)C (stereo partly drawn)", "LABEL": "Met"}
{"COMPOUND": "COC(=O)N[C@H](C(=O)N1C[C@@H](C)C[C@H]1c1ncc(-c2ccc3c(c2)COc2cc4c(ccc5nc([C@@H]6CC[C@H](C)N6C(=O)[C@@H](NC(=O)OC)C(C)C)[nH]c54)cc2-3)[nH]1)C(C)C", "LABEL": "Not met"}
{"COMPOUND": "COC[C@H]1C[C@@H](c2nc3ccc4cc5c(cc4c3[nH]2)OCc2cc(-c3cnc([C@@H]4CC[C@H](C)N4C(=O)[C@@H](NC(=O)OC)C(C)C)[nH]3)ccc2-5)N(C(=O)[C@@H](NC(=O)OC)[C@@H](C)OC)C1", "LABEL": "Met"}
{"COMPOUND": "COC(=O)N[C@H](C(=O)N1C[C@@H](C)C[C@H]1c1nc2ccc3cc4c(cc3c2[nH]1)OCc1cc(-c2cnc([C@@H]3CC[C@H](C)N3C(=O)[C@@H](NC(=O)OC)C(C)C)[nH]2)ccc1-4)C(C)C", "LABEL": "Not met"}
{"COMPOUND": "COC[C@H]1C[C@@H](c2nc3ccc4cc5c(cc4c3[nH]2)OCc2cc(-c3cnc([C@@H]4CCCN4C(=O)[C@H](NC(=O)OC)c4ccccc4)[nH]3)ccc2-5)N(C(=O)[C@@H](NC(=O)OC)C(C)C)C1", "LABEL": "Not met"}

Please indicate whether the reported EC50 of "COC[C@H]1C[C@@H](c2ncc(-c3ccc4c(c3)COc3cc5c(ccc6nc([C@@H]7CC[C@H](C)N7C(=O)[C@@H](NC(=O)OC)C(C)C)[nH]c65)cc3-4)[nH]2)N(C(=O)[C@@H](NC(=O)OC)C(C)C)C1" is strictly below 0.04 nM. Not met

Please indicate whether the reported EC50 of "COC[C@H]1C[C@@H](c2nc3ccc4cc5c(cc4c3[nH]2)OCc2cc(-c3cnc([C@@H]4C[C@H](C)CN4C(=O)[C@H](NC(=O)OC)c4ccccc4)[nH]3)ccc2-5)N(C(=O)[C@@H](NC(=O)OC)C(C)C)C1" is strictly below 0.04 nM. Met

Please indicate whether the reported EC50 of "COC[C@H]1C[C@@H](c2ncc(-c3ccc4c(c3)COc3cc5c(cc3-4)CCc3nc([C@@H]4CC[C@H](C)N4C(=O)[C@@H](NC(=O)OC)C(C)C)[nH]c3-5)[nH]2)N(C(=O)[C@H](NC(=O)OC)c2ccccc2)C1" is strictly below 0.04 nM. Met

Please indicate whether the reported EC50 of "COC[C@H]1C[C@@H](c2ncc(-c3ccc4c(c3)COc3cc5c(ccc6nc([C@@H]7CC[C@H](C)N7C(=O)[C@@H](NC(=O)OC)C(C)C)[nH]c65)cc3-4)[nH]2)N(C(=O)[C@H](NC(=O)OC)c2ccccc2)C1" is strictly below 0.04 nM. Met
